These entries and their values trace back to patent US7211685B2.

Molecular target: human calcium receptor (Homo sapiens, UniProt P41180)
Construct: expressed in transfected cells; host or cells: cell strain derived from rat adrenal
Experiment: Evaluation of antagonistic action on calcium receptor using reporter gene (luciferase)
Assay type: cell-based
Conditions: Table 24, final calcium 5 mM
Counter-ions that a name gives are not always drawn.
EXPERIMENTAL_ENDPOINT: IC50 (nM)
Report the figure in nM without appending any unit label.

Ask: Give me measured IC50, please, for this molecule: COc1ccccc1[C@H](OC[C@H](O)CNC(C)(C)Cc1ccc2ccccc2c1)C1CC1
Result: 22

Ask: Please report IC50 for the following molecule: COc1ccccc1C(C)OC[C@H](O)CNC(C)(C)Cc1ccc2ccccc2c1 (stereo partly shown) [Example 5, hydrochloride]
Result: 70

Ask: Respond only with IC50 recorded for Cc1ccccc1C(OC[C@H](O)CNC(C)(C)Cc1ccc2ccccc2c1)C1CC1 (stereo partly shown)
Result: 27

Ask: Please look at this molecule and report its IC50: Cc1ccccc1[C@H](OC[C@H](O)CNC(C)(C)Cc1ccc2ccccc2c1)C1CC1.O=C(O)/C=C/C(=O)O
Result: 45

* * *

System: PTH secretion
Assay: PTH secretion promoting action, oral administration to male SD rats, serum PTH by rat PTH (1-84) ELISA
Assay type: in vivo
Details: Table 25; 30 mg/5 ml/kg administration group, male SD rats, oral, mean ± S.E.
Please go through the items and note down their serum PTH concentration, 120 min later.
Write the figure, then the unit, nothing else.

Ask: Give the measured serum PTH concentration, 120 min later for COc1ccc(CC(C)(C)NC[C@@H](O)CO[C@@H](c2ccccc2C)C2CC2)cc1C [Example 95]
Result: 80.4 ± 9.6 pg/mL

Ask: Identify measured serum PTH concentration, 120 min later associated with CC(C)(Cc1ccc2ccccc2c1)NC[C@@H](O)COC(c1cccc(C#N)c1)C1CC1 (stereo partly shown)
Result: 74.3 ± 12.1 pg/mL

Ask: Tell me its serum PTH concentration, 120 min later given Cc1ccc(CC(C)(C)NC[C@@H](O)CO[C@@H](c2ccccc2C)C2CC2)cc1C as the entry.
Result: 65.3 ± 6.4 pg/mL

Ask: Identify serum PTH concentration, 120 min later associated with the compound Cc1ccsc1C(OC[C@H](O)CNC(C)(C)Cc1ccc2ccccc2c1)C1CC1 (stereo partly shown)
Result: 49.3 ± 4.4 pg/mL

* * *

Test system: PTH secretion
Experiment: PTH secretion promoting action, oral administration to male SD rats, serum PTH by rat PTH (1-84) ELISA
Format: in vivo
Conditions: Table 25; 30 mg/5 ml/kg administration group, male SD rats, oral, mean ± S.E.
Provide the reported serum PTH concentration, 30 min later of each item.
Enter your answer as a number in pg/mL; do not include the unit.

Ask: Print PTH secretion serum PTH concentration, 30 min later for COc1ccc(CC(C)(C)NC[C@@H](O)CO[C@@H](c2ccccc2C)C2CC2)cc1C [Example 95] .
Result: 199.1

Ask: Report value only: serum PTH concentration, 30 min later, PTH secretion, CC(C)(Cc1ccc2ccccc2c1)NC[C@@H](O)COC(c1cccc(C(N)=O)c1)C1CC1 (stereo partly shown)
Result: 156.6

Ask: Fill in serum PTH concentration, 30 min later for CN(C)c1ccccc1C(OC[C@H](O)CNC(C)(C)Cc1ccc2ccccc2c1)C1CC1 (stereo partly shown) tested with PTH secretion.
Result: 121.9

Ask: Under PTH secretion: report serum PTH concentration, 30 min later of Cc1ccsc1C(OC[C@H](O)CNC(C)(C)Cc1ccc2ccccc2c1)C1CC1 (stereo partly shown) .
Result: 130.1

* * *

Test system: PTH secretion
Experiment: PTH secretion promoting action, oral administration to male SD rats, serum PTH by rat PTH (1-84) ELISA
Assay type: in vivo
Settings: Table 25; 30 mg/5 ml/kg administration group, male SD rats, oral, mean ± S.E.
Kindly supply the reported serum PTH concentration, 120 min later values for the records listed here.
Enter your answer as a number in pg/mL; do not include the unit.

Ask: Fill in serum PTH concentration, 120 min later for CC(C)(Cc1ccc2ccccc2c1)NC[C@@H](O)COC(c1cccc(C(N)=O)c1)C1CC1 (stereo partly drawn) tested with PTH secretion.
Result: 76.1

Ask: Print PTH secretion serum PTH concentration, 120 min later for CN(C)c1ccccc1C(OC[C@H](O)CNC(C)(C)Cc1ccc2ccccc2c1)C1CC1 (stereo partly drawn) .
Result: 68.5

Ask: Give serum PTH concentration, 120 min later for COc1ccc(CC(C)(C)NC[C@@H](O)CO[C@@H](c2ccccc2C)C2CC2)cc1C [Example 127] tested on PTH secretion.
Result: 75.2

* * *

Target: human calcium receptor (Homo sapiens)
Construct: expressed in transfected cells; host or cells: cell strain derived from rat adrenal
Assay: Evaluation of antagonistic action on calcium receptor using reporter gene (luciferase)
Type: cell-based
Conditions: Table 24, final calcium 5 mM
Where a name gives a salt, the structure may show the parent alone.
EXPERIMENTAL_ENDPOINT: pIC50
A value of pIC50 is the negative decimal logarithm of a concentration given in moles per litre.

Ask: Please report pIC50 for the following compound: COc1ccccc1C(OC[C@H](O)CNC(C)(C)Cc1ccc2ccccc2c1)C1CC1 (stereo partly shown) [Example 1]
Result: 7.39

Ask: Hello, please tell me recorded pIC50 for this one: Cc1ccccc1[C@H](OC[C@H](O)CNC(C)(C)Cc1ccc2ccccc2c1)C1CC1 [Example 23]
Result: 7.57

Ask: Answer with the recorded pIC50 for the compound listed here: CC(C)(Cc1ccc2ccccc2c1)NC[C@@H](O)COCc1ccccc1 [Comparative Example 1, reference compound]
Result: 6.25

Ask: Recall and state the measured pIC50 for COc1ccccc1[C@@H](C)OC[C@H](O)CNC(C)(C)Cc1ccc2ccccc2c1 [Example 22, hydrochloride] .
Result: 7.23

* * *

So I've got a bunch of molecules here, and I need their serum PTH concentration, 30 min later values.
System: PTH secretion
Experiment: PTH secretion promoting action, oral administration to male SD rats, serum PTH by rat PTH (1-84) ELISA
Type: in vivo
Conditions: Table 25; 30 mg/5 ml/kg administration group, male SD rats, oral, mean ± S.E.
Give your result as the value with the unit written after it.

Ask: Determine from records and report serum PTH concentration, 30 min later for Cc1ccc(CC(C)(C)NC[C@@H](O)CO[C@@H](c2ccccc2C)C2CC2)cc1C
Result: 236.3 ± 60.8 pg/mL

Ask: Quickly give me recorded serum PTH concentration, 30 min later for COc1ccc(CC(C)(C)NC[C@@H](O)CO[C@@H](c2ccccc2C)C2CC2)cc1C [Example 127]
Result: 265.3 ± 22.3 pg/mL

Ask: Dear colleague, please send me the reported serum PTH concentration, 30 min later for CC(C)(Cc1ccc2ccccc2c1)NC[C@@H](O)COC(c1cccc(C#N)c1)C1CC1 (stereo partly drawn) when you can.
Result: 115.4 ± 20.0 pg/mL

* * *

Target: human calcium receptor (Homo sapiens, UniProt P41180)
Construct: expressed in transfected cells; host or cells: cell strain derived from rat adrenal
Sequence (P41180 20-1078): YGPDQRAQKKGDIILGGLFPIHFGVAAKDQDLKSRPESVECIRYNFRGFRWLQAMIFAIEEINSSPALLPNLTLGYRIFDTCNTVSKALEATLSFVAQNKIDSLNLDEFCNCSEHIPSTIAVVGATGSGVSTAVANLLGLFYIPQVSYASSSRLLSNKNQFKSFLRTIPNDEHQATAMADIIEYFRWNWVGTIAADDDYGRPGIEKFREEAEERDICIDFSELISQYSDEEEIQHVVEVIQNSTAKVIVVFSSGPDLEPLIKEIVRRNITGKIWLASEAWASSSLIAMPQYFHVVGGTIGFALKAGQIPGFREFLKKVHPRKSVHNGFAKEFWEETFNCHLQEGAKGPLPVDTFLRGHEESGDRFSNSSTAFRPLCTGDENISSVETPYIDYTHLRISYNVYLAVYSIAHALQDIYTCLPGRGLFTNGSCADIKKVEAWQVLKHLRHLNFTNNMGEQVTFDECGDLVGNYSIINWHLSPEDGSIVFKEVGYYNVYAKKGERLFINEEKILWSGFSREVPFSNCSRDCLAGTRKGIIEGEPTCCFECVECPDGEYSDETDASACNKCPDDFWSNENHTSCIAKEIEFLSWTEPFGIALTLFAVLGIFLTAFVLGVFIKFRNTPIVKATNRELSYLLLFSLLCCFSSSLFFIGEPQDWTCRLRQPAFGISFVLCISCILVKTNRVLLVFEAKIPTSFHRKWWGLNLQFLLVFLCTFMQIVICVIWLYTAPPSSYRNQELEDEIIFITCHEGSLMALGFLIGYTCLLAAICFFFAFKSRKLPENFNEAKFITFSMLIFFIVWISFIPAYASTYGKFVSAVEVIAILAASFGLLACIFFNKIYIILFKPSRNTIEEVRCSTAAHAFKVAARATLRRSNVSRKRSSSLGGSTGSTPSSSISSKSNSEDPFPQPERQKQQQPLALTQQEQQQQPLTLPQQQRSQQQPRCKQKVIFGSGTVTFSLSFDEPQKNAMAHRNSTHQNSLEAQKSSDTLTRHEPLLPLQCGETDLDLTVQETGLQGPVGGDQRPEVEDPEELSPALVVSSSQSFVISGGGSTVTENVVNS
Assay: Evaluation of antagonistic action on calcium receptor using reporter gene (luciferase)
Format: cell-based
Details: Table 25, final calcium 5 mM
Please respond with reported pIC50 for every item in the list.
Just so you know, pIC50 here is -log10 of the concentration in molar units; reply with that number alone.

Ask: Specify pIC50 for Cc1ccc(CC(C)(C)NC[C@@H](O)CO[C@@H](c2ccccc2C)C2CC2)cc1C [Example 111] and stop.
Result: 7.62

Ask: Provide one value: measured pIC50 of CC(C)(Cc1ccc2ccccc2c1)NC[C@@H](O)COC(c1cccc(C#N)c1)C1CC1 (stereo partly shown) [Example 105]
Result: 7.31

Ask: Identify the reported pIC50 for the following entry. CN(C)c1ccccc1C(OC[C@H](O)CNC(C)(C)Cc1ccc2ccccc2c1)C1CC1 (stereo partly shown) [Example 82]
Result: 7.29

Ask: Quote pIC50 reported for CC(C)(Cc1ccc2ccccc2c1)NC[C@@H](O)COC(c1cccc(C(N)=O)c1)C1CC1 (stereo partly shown) [Example 80] please.
Result: 7.19

Ask: Please look at this compound and report its pIC50: Cc1ccsc1C(OC[C@H](O)CNC(C)(C)Cc1ccc2ccccc2c1)C1CC1 (stereo partly shown) [Example 100]
Result: 7.17

Ask: For the compound COc1ccc(CC(C)(C)NC[C@@H](O)CO[C@@H](c2ccccc2C)C2CC2)cc1C [Example 127] , report pIC50.
Result: 6.88

Ask: Could you please provide reported pIC50 for COc1ccc(CC(C)(C)NC[C@@H](O)CO[C@@H](c2ccccc2C)C2CC2)cc1C [Example 95] ? Thanks!
Result: 7.54
